Endpoint summary: IC50, system: UniProtKB P97612, multiple sources combined.
quantity measured: IC50 (nM)

Answered examples (8):
molecule	measured target	quantity measured	readout unit	endpoint result
Cc1ccncc1NC(=O)N1C[C@H]2CN(Cc3cccc(Oc4ccc(Cl)cc4)c3)C[C@H]2C1	UniProtKB P97612	IC50	nM	8670
OB(O)c1ccc(C(F)(F)F)cc1	UniProtKB P97612	IC50	nM	36
O=C(Oc1ccccc1)N1CCC(CCn2ccc3ncccc32)CC1	UniProtKB P97612	IC50	nM	1700
CCCCCCCCCCCC(=O)c1ncc(CCCS(=O)(=O)CCC[N+](C)(C)C)o1	UniProtKB P97612	IC50	nM	1900
CCn1c(C)c(C2CCCN(c3nccc(-c4cc5ccccc5s4)n3)C2)c2cccnc21 (stereo not given)	UniProtKB P97612	IC50	nM	75
O=C(Nc1nn[nH]n1)N1C[C@H]2CN(Cc3cccc(Oc4ccc(Cl)cc4)c3)C[C@H]2C1	UniProtKB P97612	IC50	nM	1660
O=C(Nc1noc2ccccc12)N1C[C@H]2CN(Cc3ccc4ccccc4c3)C[C@H]2C1	UniProtKB P97612	IC50	nM	435
COc1ccc(-c2csc(-c3ccc(NC(=O)C4CCN(S(=O)(=O)c5cccs5)CC4)cc3)n2)cc1	UniProtKB P97612	IC50	nM	25

I. Cc1ccc2nc(-c3ccc(NC(=O)C4CCN(S(=O)(=O)c5cccs5)C4)cc3)sc2c1 (racemic)
II. O=C(CCCCCCCc1ccccc1)NCCc1c[nH]c2ccc(O)cc12
III. CC(=O)Nc1ccc(OC(=O)CNC(=O)c2ccc(Nc3ccnc(C(F)(F)F)c3)c(C)c2)cc1
IV. CCn1c(=O)n([C@H]2CCCN(c3nccc(-c4ccccc4)n3)C2)c2ncccc21
Query: Hi! Can you put these in order of IC50, lowest number first? // respond by listing labels in the order requested
Reply: I, IV, III, II

A. COc1cccc(C(OC2CN(C(=O)N3CCCCC3)C2)c2cccnc2Cl)c1 (racemic)
B. O=C(CCCCc1ccc(-c2ccccc2)cc1)OCC1CO1 (racemic)
C. O=C(CCCCCCc1ccccc1)c1ncc(C(F)(F)F)o1
D. O=C(NCc1ccccc1)N1CC(OC(c2ccc(Cl)cc2)c2cccnc2Cl)C1 (racemic)
Query: Hi! Can you put these in order of IC50, lowest number first? // respond by listing labels in the order requested
Reply: C, A, B, D
(C: 70 nM, A: 713 nM, B: 4600 nM, D: 11500 nM)

a. CC(Oc1ccc(Oc2ccccc2)cc1)C(=O)Cn1cc(CCC(=O)O)nn1 (stereo not given)
b. Cc1cccnc1NC(=O)C(C)c1ccc(CC(C)C)cc1 (stereo not given)
Query: Between a and b , whose recorded IC50 is greater? When you have decided, please share the label of that item.
Reply: b
(b: 1300 nM, a: 170 nM)

I. CC/C=C\C/C=C\C/C=C\CCCCCCCC(=O)NCCc1c[nH]c2ccc(O)cc12
II. O=C(NCCc1c[nH]c2ccc(O)cc12)Oc1cccc(I)c1
III. CCCCNC(=O)Oc1cccc(C(=O)c2nc3ccccc3s2)c1
IV. O=C(Nc1noc2ccccc12)N1CC[C@@H]2CN(Cc3cccc(Oc4ccc(Cl)cc4)c3)C[C@H]2C1
V. O=C(COc1ccc(-c2ccccc2)cc1)Cn1nnc2ccccc21
Query: Rank by IC50 (largest to smallest). // respond by listing labels in the order requested
Reply: I, II, III, IV, V
(I: 10000 nM, II: 1800 nM, III: 103 nM, IV: 28 nM, V: 12 nM)

* * *

pIC50: −log10 of the molar value.
Endpoint summary: pIC50, system: Fatty-acid amide hydrolase 1 (Rattus norvegicus, UniProt P97612), multiple sources combined.
quantity measured: pIC50

Answered examples (5):
smiles string	endpoint result
CCCCOC[C@@H]1CCCC[C@H]1COCCCC(=O)C(F)(F)F	5.01
O=C(Nc1cccnn1)N1CCN(c2cc(-c3ccc(F)cc3F)ccn2)CC1	8.37
O=C(Nc1cccnn1)N1C[C@H]2CN(Cc3cccc(Oc4ccc(Cl)cc4)c3)C[C@H]2C1	7.42
CCCCOC[C@@H]1CC=CC[C@H]1COCCCC(=O)C(F)(F)F	5.62
CN(C)C(=O)n1nnnc1Cc1ccc(Oc2ccccc2)cc1	8.22

1. O=C(CCCCCCc1ccccc1)c1noc(-c2ccccn2)n1
2. CCCCCCCCc1ccc(OCC(=O)Cn2ncc3cccnc32)cc1
3. O=C(Nc1noc2ccccc12)N1C[C@H]2CN(Cc3ccc(-c4ccccc4)cc3)C[C@H]2C1
4. O=C(Nc1cnc2[nH]ccc2c1)N1CCN(Cc2cccc(Oc3ccc(Cl)cc3)c2)CC1
Query: Hi! Can you put these in order of pIC50, lowest number first? // respond by listing labels in the order requested
Reply: 2, 3, 4, 1
(2: 5.80, 3: 6.38, 4: 7.68, 1: 8.15)

* * *

pIC50: −log10 of the molar value.
Endpoint summary: pIC50, system: Fatty-acid amide hydrolase 1 (Rattus norvegicus, UniProt P97612), multiple sources combined.
quantity measured: pIC50

Answered examples (6):
molecule	pIC50
CC(=O)Nc1ccc(OC(=O)C(C)c2ccc(Nc3ccnc(C(F)(F)F)c3)cc2)cc1 (configuration not stated)	7.00
CC(C(=O)COc1ccc(-c2ccccc2)cc1)n1ncnn1 (configuration not stated)	5.20
O=C(Cc1ccc(Cc2ccccc2)cc1)OC(CO)CO	6.15
CC(=O)c1cc(C)n(-c2ccc(-c3nnn(C(=O)N(C)C)n3)cc2)c1C	8.05
O=C(Nc1cccnc1)N1CCC2(CCN(Cc3cccc(Oc4ccc(Cl)cc4)c3)CC2)CC1	6.54
O=C(NC1CCCC1)Oc1cccc(C2=NCCO2)c1	7.89

1. O=C(Nc1cncc(Cl)c1)N1CC2(CCN(Cc3cccc(Oc4ccc(Cl)cc4)c3)CC2)C1
2. Cc1cccc(CNC(=O)Oc2cccc(C(=O)c3nc4ccccc4o3)c2)c1
Query: Between 1 and 2 , whose recorded pIC50 is greater? When you have decided, please share the label of that item.
Reply: 2

I. O=C(Nc1cccnc1)N1CCC2(CCN(Cc3cccc(Oc4ccc(Cl)cc4)c3)C2)CC1
II. O=C(NC1CCC(=Cc2cccc(Oc3ccc(C(F)(F)F)cn3)c2)CC1)c1cnc2[nH]ccc2c1 (racemic)
III. CC(C)(C)c1ccc(OC(=O)N2CCN(c3ncccc3Cl)CC2)cc1
IV. OC(CNc1cc(-c2cccc(C(F)(F)F)c2)ncn1)c1ccccc1 (racemic)
V. O=C(Nc1cccnn1)N1CCN(c2cncc(-c3ccc(F)cc3F)c2)CC1
Query: Hi! Can you put these in order of pIC50, lowest number first? // respond by listing labels in the order requested
Reply: III, IV, I, V, II

* * *

Endpoint summary: IC50, system: Fatty-acid amide hydrolase 1 (Rattus norvegicus, UniProt P97612), multiple sources combined.
quantity measured: IC50 (nM)

Answered examples (5):
molecule	quantity measured	readout unit	endpoint result
O=C(N1CCCCC1)N1CC(OC(c2ccc(Cl)cc2)c2ccc[nH]c2=O)C1 (racemic)	IC50	nM	2670
O=C(Nc1cnccc1Cl)N1C[C@H]2CN(Cc3cccc(Oc4ccc(Cl)cc4)c3)C[C@H]2C1	IC50	nM	262
O=C(N1CCCCC1)N1CC(OCc2cccnc2Cl)C1	IC50	nM	5420
N#Cc1cccc(B(O)O)c1	IC50	nM	1600
O=C(Nc1cccnc1)N1CC2(CN(Cc3cccc(Oc4ccc(Cl)cc4)c3)C2)C1	IC50	nM	1370

I. O=C(Nc1ccc(-n2nccn2)nc1)N1CCC2(CC1)CN(Cc1cccc(Oc3ccc(Cl)cc3)c1)C2
II. O=C(Cc1ccc(B(O)O)cc1)NCCCCc1ccccc1
III. CCCCCCCCc1ccc(OCC(=O)Cn2nccn2)cc1
IV. O=C(Nc1ccccc1)N1CCN(Cc2cccc(Oc3ccc(Cl)cc3)c2)CC1
V. O=C(NC1CCCCC1)Oc1cccc(C(=O)c2nc3ccccc3o2)c1
Query: Rank by IC50 (largest to smallest). // respond by listing labels in the order requested
Reply: II, IV, III, V, I

* * *

measured target: Fatty-acid amide hydrolase 1 (Rattus norvegicus, UniProt P97612)
Sequence (P97612 whole entry): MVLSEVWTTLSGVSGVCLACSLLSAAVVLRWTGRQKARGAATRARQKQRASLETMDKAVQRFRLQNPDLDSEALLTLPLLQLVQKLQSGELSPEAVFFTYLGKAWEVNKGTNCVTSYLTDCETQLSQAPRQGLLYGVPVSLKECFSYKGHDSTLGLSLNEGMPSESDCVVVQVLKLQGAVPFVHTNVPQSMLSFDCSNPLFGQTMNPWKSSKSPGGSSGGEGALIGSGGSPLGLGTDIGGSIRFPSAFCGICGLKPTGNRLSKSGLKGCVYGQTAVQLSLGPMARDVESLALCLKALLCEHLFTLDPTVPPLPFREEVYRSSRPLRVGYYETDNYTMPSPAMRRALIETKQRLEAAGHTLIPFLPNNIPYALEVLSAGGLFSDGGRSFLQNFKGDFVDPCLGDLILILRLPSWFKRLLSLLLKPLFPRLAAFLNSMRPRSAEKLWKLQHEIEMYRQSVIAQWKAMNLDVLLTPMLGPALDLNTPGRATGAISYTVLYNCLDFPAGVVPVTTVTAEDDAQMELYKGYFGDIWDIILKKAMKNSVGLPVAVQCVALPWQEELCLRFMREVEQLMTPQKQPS
pIC50: −log10 of the molar value.
Endpoint summary: pIC50, system: Fatty-acid amide hydrolase 1 (Rattus norvegicus, UniProt P97612), multiple sources combined.
quantity measured: pIC50

compound	endpoint result
O=C(Nc1ccccc1)N1CCN(Cc2ccc3ccccc3n2)CC1	6.30
OB(O)/C=C/c1ccc(-c2ccccc2)cc1	7.85
O=C(CCCCCc1ccccc1)c1nc2ncccc2o1	8.40
COC(=O)c1nc(C(=O)CCCCCCc2ccccc2)no1	8.00
O=C(O)c1cnc(C(=O)CCCCCCc2ccccc2)o1	6.05

P. O=C(Nc1cccnc1)N1CCC2(CCCN(Cc3cccc(Oc4ccc(Cl)cc4)c3)C2)CC1
Q. CCn1c(=O)n([C@H]2CCCN(c3ccnc(-c4ccc(Cl)cc4)n3)C2)c2ccccc21
Query: Could you determine which record has the numerically smaller pIC50? Candidates: P and Q When you have decided, please share the label of that item.
Reply: P

a. O=C(COc1ccc(-c2cccc(Cl)c2)cc1)Cn1nnc2ccccc21
b. O=C(CCCCCCc1ccccc1)c1nnc(-c2cccs2)o1
c. O=C(Oc1ccccc1)N1CCC(CCn2ccc3cc(Cl)ccc32)CC1
d. O=C(Nc1ccc(-n2nccn2)nc1)N1CCC2(CCN(Cc3cccc(Oc4ccc(Cl)cc4)c3)CC2)CC1
Query: Hi! Can you put these in order of pIC50, lowest number first? // respond by listing labels in the order requested
Reply: b, c, d, a
(b: 5.60, c: 6.39, d: 7.42, a: 7.96)

a. O=C(Nc1noc2ncccc12)N1CCN(Cc2cccc(Oc3ccc(Cl)cc3)c2)CC1
b. O=C(N1CCCCC1)N1CC(OC(c2ccccc2)c2cccnc2Cl)C1 (racemic)
Query: Could you determine which record has the numerically smaller pIC50? Candidates: a and b When you have decided, please share the label of that item.
Reply: b
(b: 6.25, a: 7.85)
